Measured MATE2K ratio, listed per entry.
Target: UniProtKB Q86VL8
Sequence (Q86VL8 1-566 isoform Q86VL8-3): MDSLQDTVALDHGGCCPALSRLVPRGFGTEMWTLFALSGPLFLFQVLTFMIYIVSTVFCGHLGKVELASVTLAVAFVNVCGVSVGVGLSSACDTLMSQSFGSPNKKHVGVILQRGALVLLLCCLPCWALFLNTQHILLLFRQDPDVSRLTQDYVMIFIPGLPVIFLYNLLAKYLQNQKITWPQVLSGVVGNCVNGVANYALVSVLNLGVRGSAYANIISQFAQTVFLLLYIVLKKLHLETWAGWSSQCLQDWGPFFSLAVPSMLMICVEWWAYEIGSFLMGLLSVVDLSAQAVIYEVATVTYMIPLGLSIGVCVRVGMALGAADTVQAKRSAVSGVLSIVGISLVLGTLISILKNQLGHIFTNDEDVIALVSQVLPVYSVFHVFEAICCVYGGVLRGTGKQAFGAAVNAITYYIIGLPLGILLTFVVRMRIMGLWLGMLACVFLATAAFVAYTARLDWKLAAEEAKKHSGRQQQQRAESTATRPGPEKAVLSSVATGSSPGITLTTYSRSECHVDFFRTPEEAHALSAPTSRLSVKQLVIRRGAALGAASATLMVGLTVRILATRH
Assay: Uptake ratio in MATE2K-overexpressing HEK293 cells vs empty vector (2.5 μM, 1 min, HPLC-MS/MS)
Format: cell-based
Settings: fold uptake over empty vector, 2.5 μM, 1 min
# answer = number (no unit)

COMPOUND	MEASURED RESULT
CNc1c(C)n(C)n(-c2ccccc2)c1=O [4-Methylaminoantipyrine]	0.83
CC(=O)c1cc2cccc(OCC(O)CNC(C)C)c2o1 (stereo not drawn) [Befunolol]	1.38
Nc1nc(=O)n([C@@H]2CS[C@H](CO)O2)cc1F [Emtricitabine]	2.88
NC(=O)OCC(COC(N)=O)c1ccccc1 [Felbamate]	0.94

## Input What is its MATE2K ratio for UniProtKB Q86VL8? Entry: Nc1ccc2[nH]ncc2c1 [5-Aminoindazole]
## Output 0.73

## Input Can you handle CN(C)C(N)=NCCC[C@H](N)C(=O)O [NN-Dimethylarginine] next?
## Output 0.93

## Input Can you handle CC(CCc1ccc(O)cc1)NCCc1ccc(O)c(O)c1 (stereo not drawn) [Dobutamine] next?
## Output 2.77

## Input Can you handle C[N+](C)(C)CCO [Choline] next?
## Output 1.09

## Input Can you handle N#CC[C@H](C1CCCC1)n1cc(-c2ncnc3[nH]ccc23)cn1 [Ruxolitinib] next?
## Output 0.99

## Input Can you handle NCCc1cccc(O)c1 [m-Tyramine] next?
## Output 1.31

## Input Can you handle CC(C)(C)NCC(O)COc1cccc2c1CC(O)C(O)C2 (stereo not drawn) [Nadolol] next?
## Output 10.12

## Input Can you handle CN(C)CCC=C1c2ccccc2COc2ccccc21 [Doxepin (E), Doxepin] next?
## Output 1.08

## Input Can you handle C1CNCCN1 [Piperazine] next?
## Output 1.03
